Reference source for all entries: ChEMBL document CHEMBL1777732

target: Metabotropic glutamate receptor 5 (Homo sapiens, UniProt P41594); experiment: Negative allosteric modulation of human mGluR5 expressed in HEK293 cells assessed as inhibition of L-glutamate-induced calcium mobilization by FLIPR assay; type: functional, cell-based; settings: read-out: IC50
Sequence (P41594 whole entry): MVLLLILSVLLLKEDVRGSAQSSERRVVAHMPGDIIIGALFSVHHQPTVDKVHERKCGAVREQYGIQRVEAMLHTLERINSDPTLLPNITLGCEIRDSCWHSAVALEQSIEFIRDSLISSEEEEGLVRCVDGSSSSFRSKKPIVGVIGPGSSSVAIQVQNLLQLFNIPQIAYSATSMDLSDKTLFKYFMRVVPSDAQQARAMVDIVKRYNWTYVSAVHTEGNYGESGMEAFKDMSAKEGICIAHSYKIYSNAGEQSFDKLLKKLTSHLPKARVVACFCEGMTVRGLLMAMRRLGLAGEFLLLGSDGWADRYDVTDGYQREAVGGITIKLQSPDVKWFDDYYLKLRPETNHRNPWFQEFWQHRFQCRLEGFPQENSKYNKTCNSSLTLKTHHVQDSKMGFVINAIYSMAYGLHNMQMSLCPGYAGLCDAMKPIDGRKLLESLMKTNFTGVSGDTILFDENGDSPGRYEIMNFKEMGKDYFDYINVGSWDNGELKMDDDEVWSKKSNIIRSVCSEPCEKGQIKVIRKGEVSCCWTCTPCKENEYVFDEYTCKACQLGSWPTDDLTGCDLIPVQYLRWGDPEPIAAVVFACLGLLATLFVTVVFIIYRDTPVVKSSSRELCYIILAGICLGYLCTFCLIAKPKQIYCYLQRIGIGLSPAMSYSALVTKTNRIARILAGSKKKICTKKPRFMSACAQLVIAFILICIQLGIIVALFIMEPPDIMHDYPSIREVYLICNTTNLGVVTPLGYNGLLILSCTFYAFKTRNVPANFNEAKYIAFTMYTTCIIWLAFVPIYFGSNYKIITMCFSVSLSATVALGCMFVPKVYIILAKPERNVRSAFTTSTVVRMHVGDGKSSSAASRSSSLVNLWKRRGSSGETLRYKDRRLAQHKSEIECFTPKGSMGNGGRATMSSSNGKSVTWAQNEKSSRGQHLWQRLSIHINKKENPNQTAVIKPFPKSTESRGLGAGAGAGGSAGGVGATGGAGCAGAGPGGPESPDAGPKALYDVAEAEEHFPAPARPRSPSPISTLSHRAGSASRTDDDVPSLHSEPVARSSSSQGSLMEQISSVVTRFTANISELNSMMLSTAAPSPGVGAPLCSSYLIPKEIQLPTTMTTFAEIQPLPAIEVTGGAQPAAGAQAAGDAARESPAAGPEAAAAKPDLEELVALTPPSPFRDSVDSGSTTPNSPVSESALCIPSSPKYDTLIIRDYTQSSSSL
Parameter: IC50 (nM)
Answer in nM, number only, no unit symbol.

Sample records with IC50:
>>> test_value("O=C(NC1CCCC1)c1ccc(C#Cc2ccccn2)nc1")
227
>>> test_value("CN1CCc2nc(C#Cc3ccccc3Cl)ccc2C1=O")
916
>>> test_value("Cc1cccc(C#Cc2ccc3c(n2)CCN(C(C)C)C3=O)c1")
4.8
>>> test_value("CN1CCc2nc(C#Cc3cccs3)ccc2C1=O")
451
>>> test_value("COc1cccc(C#Cc2ccc3c(n2)CCN(C(C)C)C3=O)c1")
111

query: State its IC50 for this compound: Cc1cccc(C#Cc2ccc3c(n2)CCN(C)C3=O)c1
result: 2.9

query: State its IC50 for this compound: CC(C)N1CCc2nc(C#Cc3ccc(Cl)cc3)ccc2C1=O
result: 4230

query: State its IC50 for this compound: Cc1ccc(C#Cc2ccc3c(n2)CCN(C)C3=O)cc1
result: 1400

query: State its IC50 for this compound: CN1CCc2nc(C#Cc3ccccn3)ccc2C1=O
result: 184

query: State its IC50 for this compound: COc1cccc(C#Cc2ccc3c(n2)CCN(C)C3=O)c1
result: 293
